- PROCEDURE_SUMMARY: RP, Waters ACQUITY UPLC BEH C18, 38 °C, 0.24 mL/min; A: water + 0.1% formic acid, pH 3; B: acetonitrile + 0.1% formic acid, pH 3; gradient (min/%B) 0/0 0.25/0 0.4/9 0.8/17 1.9/100 2.1/100 2.11/0 3/0
- CONDITIONS_USED: stereoisomer not certain
Where a name gives a salt, the structure may show the parent alone.
// NB: equality with 0.9 min counts as n; only LC retention time strictly below is y

Prompt: A record lists NC12CC3CC(CC(C3)C1)C2 [Amantadine hydrochloride] . Is its LC retention time below 0.9 min?
Response: n

Prompt: Likewise for NC(CCCC(N)C(=O)O)C(=O)O (racemic) [DL-alpha,epsilon-Diaminopimelic acid] ?
Response: y

Prompt: Likewise for O=c1cccc[nH]1 [2-Hydroxypyridine] ?
Response: y

Prompt: Likewise for O=c1c(OC2OC(CO)C(O)C(O)C2O)c(-c2ccc(O)c(O)c2)oc2cc(O)cc(O)c12 (centres undefined) [Hyperoside] ?
Response: n

Prompt: Likewise for C[N+](C)(C)CCOP(=O)(O)O [O-Phosphocholine] ?
Response: y

Prompt: Likewise for COc1cc(-c2oc3cc(O)cc(O)c3c(=O)c2OC2OC(CO)C(O)C(O)C2O)cc(OC)c1O (centres undefined) [syringetin-3-O-glucoside] ?
Response: n

Prompt: Likewise for Nc1ccc(C(=O)NCC(=O)O)cc1 [4-Aminohippurate] ?
Response: n

Prompt: Likewise for CC(=O)Oc1ccc2c(C)cc(=O)oc2c1 [4-methylumbelliferyl acetate] ?
Response: n

Prompt: Likewise for NCCCCCN [Cadaverine] ?
Response: y
